- MEASUREMENT_DESCRIPTION: Toxicokinetics from toxicological studies in dogs, daily oral (gavage) administration
- Type: in vivo, dog
- STATED_CONDITIONS: female, dog, plasma, po, 100 mg/kg, CBD 100 mg/kg oral, Day 1, females, Mean, N=6; read-out: AUC0-t
EXPERIMENTAL_READOUT: AUC0-t (ng·h/mL)
API: value field is a number in ng·h/mL; no unit string.

GET /values?readout=AUC0-t&item= C=C(C)[C@@H]1CCC(C)=C[C@H]1c1c(O)cc(CCCCC)cc1O [CBD, Cannabidiol] 18600

====

- MEASUREMENT_DESCRIPTION: Toxicokinetics from toxicological studies in dogs, daily oral (gavage) administration
- Format: in vivo, dog
- STATED_CONDITIONS: female, dog, plasma, po, 100 mg/kg, comparative Table 11, females, 100 mg/kg, Day 1, mean; read-out: AUC0-t
- Protocol: Samples were taken from the jugular vein into lithium heparin. Samples were mixed gently by hand then continuously for at least 2 minutes on automatic mixer and placed in a Kryorack until centrifugation, which was carried out at approximately 4° C. as soon as practicable. The resultant plasma was separated under low light conditions, transferred to uniquely labelled clear glass vials, placed in light proof boxes and frozen immediately at <−50° C.
EXPERIMENTAL_READOUT: AUC0-t (µg·h/mL)
API: value field is a number in µg·h/mL; no unit string.

GET /values?readout=AUC0-t&item= C=C(C)[C@@H]1CCC(C)=C[C@H]1c1c(O)cc(CCCCC)cc1O 18.6

====

- MEASUREMENT_DESCRIPTION: Toxicokinetics from toxicological studies in dogs, daily oral (gavage) administration
- Format: in vivo, dog
- STATED_CONDITIONS: male, dog, plasma, po, 100 mg/kg, CBD 100 mg/kg oral, Day 1, males, Mean, N=5; read-out: Vz/F
EXPERIMENTAL_READOUT: Vd/F (L/kg)
API: value field is a number in L/kg; no unit string.

GET /values?readout=Vd/F&item= C=C(C)[C@@H]1CCC(C)=C[C@H]1c1c(O)cc(CCCCC)cc1O [CBD, Cannabidiol] 29.9

====

- MEASUREMENT_DESCRIPTION: Toxicokinetics from toxicological studies in dogs, daily oral (gavage) administration
- Type: in vivo, dog
- STATED_CONDITIONS: male, dog, plasma, po, 100 mg/kg, CBD 100 mg/kg oral, Day 1, males, Geometric Mean; read-out: CL/F
EXPERIMENTAL_READOUT: CL/F (mL/min/kg)
API: value field is a number in mL/min/kg; no unit string.

GET /values?readout=CL/F&item= C=C(C)[C@@H]1CCC(C)=C[C@H]1c1c(O)cc(CCCCC)cc1O [CBD, Cannabidiol] 44.4
